target: UniProtKB P06802; experiment: ENPP1 enzyme activity assay using cGAMP as substrate (luciferase detection of AMP); format: biochemical; conditions: ENPP1 enzyme activity, Table 4; read-out: IC50
Sequence (P06802 85-906): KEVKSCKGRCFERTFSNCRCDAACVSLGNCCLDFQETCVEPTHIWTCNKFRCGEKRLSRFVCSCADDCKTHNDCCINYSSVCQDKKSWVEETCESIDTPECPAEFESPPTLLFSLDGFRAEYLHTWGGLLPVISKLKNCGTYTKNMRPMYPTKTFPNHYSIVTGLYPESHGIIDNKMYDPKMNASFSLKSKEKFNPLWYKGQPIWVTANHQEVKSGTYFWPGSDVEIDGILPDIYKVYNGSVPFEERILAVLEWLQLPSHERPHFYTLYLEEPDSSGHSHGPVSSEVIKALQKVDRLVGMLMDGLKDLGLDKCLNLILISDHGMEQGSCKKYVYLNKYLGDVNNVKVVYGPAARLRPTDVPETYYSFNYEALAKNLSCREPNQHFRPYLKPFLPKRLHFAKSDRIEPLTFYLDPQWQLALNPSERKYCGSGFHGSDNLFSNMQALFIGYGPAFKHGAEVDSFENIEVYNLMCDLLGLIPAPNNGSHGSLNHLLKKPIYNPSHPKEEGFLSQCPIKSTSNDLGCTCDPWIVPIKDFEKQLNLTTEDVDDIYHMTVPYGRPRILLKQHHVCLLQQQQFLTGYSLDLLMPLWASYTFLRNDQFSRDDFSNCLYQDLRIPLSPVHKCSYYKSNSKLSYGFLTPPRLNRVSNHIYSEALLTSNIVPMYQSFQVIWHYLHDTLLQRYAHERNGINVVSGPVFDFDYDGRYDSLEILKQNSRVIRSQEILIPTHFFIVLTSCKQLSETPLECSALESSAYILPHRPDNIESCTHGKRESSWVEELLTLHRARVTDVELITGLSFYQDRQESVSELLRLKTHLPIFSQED
parameter: IC50

Value lookup for IC50; key = COc1cc2ncnc(Nc3ccc(CP(=O)(O)O)cc3)c2cc1OC [Compound 3] 0.05 to 0.1 µM
